measured endpoint: melting point

> print(dat)
                                   compound            val
1  O=C(CF)NC[C@H]1CN(c2ccc(N3CCN(c4ccc([N+](=O)[O-])s4)CC3)c(F)c2)C(=O)O1  145 to 150 °C
2  CC(=O)NC[C@H]1CN(c2ccc(N3CCN(c4ccc([N+](=O)[O-])o4)CC3)c(F)c2)C(=O)O1 [Compound No. 4]  191 to 204 °C
3  CC(=O)NC[C@H]1CN(c2ccc(N3CCN(c4ccc(C=O)o4)CC3)c(F)c2)C(=O)O1 [Compound No. 3]         176 °C
4  CC(=O)NC[C@H]1CN(c2ccc(N3CCN(c4ccc([N+](=O)[O-])s4)CC3)c(F)c2)C(=O)O1 [Compound No. 1]  171 to 174 °C
5  CC(=O)NC[C@H]1CN(c2ccc(N3CCN(c4ccc(C=O)s4)CC3)c(F)c2)C(=O)O1 [Compound No. 2]  180 °C (dec.)

----------
system: S. pneumoniae AB 34; assay: MIC, agar incorporation method; assay type: cell-based, Streptococcus pneumoniae; details: S. No. 49, S. pneumoniae AB 34
measured endpoint: MIC

> print(dat)
                                   molecule  measured.endpoint        val
1  C[C@H](Cl)C(=O)NCC1CN(c2ccc(N3CCN(c4ccc([N+](=O)[O-])s4)CC3)c(F)c2)C(=O)O1 (stereo partly shown)                MIC    4 µg/mL
2  CC(=O)NC[C@H]1CN(c2ccc(N3CCN(c4ccc([N+](=O)[O-])s4)CC3)cc2)C(=O)O1                MIC  0.5 µg/mL
3  CC(=O)NC[C@H]1CN(c2ccc(N3CCN(c4cc(C(OC(C)=O)OC(C)=O)sc4[N+](=O)[O-])CC3)c(F)c2)C(=O)O1                MIC  0.5 µg/mL
4  O=C(NC[C@H]1CN(c2ccc(N3CCN(c4ccc([N+](=O)[O-])s4)CC3)c(F)c2)C(=O)O1)C(Cl)Cl                MIC  0.5 µg/mL

----------
test system: S. pneumoniae AB 17; assay: MIC, agar incorporation method; format: cell-based, Streptococcus pneumoniae; settings: Streptococcus pneumoniae, AB17; S. No. 40, S. pneumoniae AB 17; read-out: MIC
Overview of reported MIC across a group of compounds:
measured endpoint: MIC (mg/L)

> print(dat)
                      smiles.representation            tested.on  measured.endpoint  censoring.operator    val
1  CC(=O)NC[C@H]1CN(c2ccc(N3CCN(c4ccc([N+](=O)[O-])s4)CC3)c(F)c2)C(=O)O1  S. pneumoniae AB 17                MIC                   =   0.06
2  CC(=O)NC[C@H]1CN(c2ccc(N3CCN(c4ccc([N+](=O)[O-])o4)CC3)c(F)c2)C(=O)O1  S. pneumoniae AB 17                MIC                   =      4
3  CC(=O)NC[C@H]1CN(c2ccc(N3CCN(c4ccc(C=O)o4)CC3)c(F)c2)C(=O)O1  S. pneumoniae AB 17                MIC                   <  0.125
4  CC(=O)NC[C@H]1CN(c2ccc(N3CCN(c4ccc(C=O)s4)CC3)c(F)c2)C(=O)O1  S. pneumoniae AB 17                MIC                   =    0.5
